Listed below: inhibition at 100 µM values for each entry.
- target.system: Human osteoclastic acid phosphatase (OAP) (Homo sapiens)
- Construct: purified from hairy cell leukemia spleen; from tissue; host or cells: human hairy cell leukemia spleen
- Sequence (P13686 22-325): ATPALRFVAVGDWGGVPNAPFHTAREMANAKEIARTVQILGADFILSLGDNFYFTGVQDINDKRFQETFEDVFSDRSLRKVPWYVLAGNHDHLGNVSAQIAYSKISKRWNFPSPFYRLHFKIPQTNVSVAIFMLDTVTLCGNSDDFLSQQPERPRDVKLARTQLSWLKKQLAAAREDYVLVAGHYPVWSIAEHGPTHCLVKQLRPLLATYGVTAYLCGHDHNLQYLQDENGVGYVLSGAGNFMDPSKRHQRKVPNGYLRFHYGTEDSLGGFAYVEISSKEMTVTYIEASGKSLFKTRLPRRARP
- test.protocol: Osteoclastic Acid Phosphatase (OAP) inhibition
- Format: biochemical
- measurement.context: 100 uM; pH 5.0, room temperature, 20 minutes; read-out: OAPase % Inh@100 uM
reported.property: inhibition at 100 µM

>>> print(df.to_string())
                                   compound  result
0  Cc1ccc(C)c(C(c2ccccc2)P(=O)(O)O)c1 (centres unmarked)     13%
1  Cc1ccccc1C(c1ccccc1)P(=O)(O)O (centres unmarked)     13%
2  O=P(O)(O)C(c1ccccc1)c1ccc(Cl)cc1 (centres unmarked)     17%
3  O=P(O)(O)C(Cc1ccc(-c2ccccc2)cc1)c1cccc2ccccc12 (centres unmarked)    100%
4  Cc1cccc(CC(c2cccc(C(F)(F)F)c2)P(=O)(O)O)c1 (centres unmarked)     25%
5  Cc1ccc2c(C(CC3CCCCC3)P(=O)(O)O)cccc2c1 (centres unmarked)     73%
6  O=P(O)(O)C(Cc1ccccc1)c1cccc(C(F)(F)F)c1 (centres unmarked)     12%
7  O=C(c1ccccc1)C(C(=O)c1ccccc1)(c1cccc2ccccc12)P(=O)(O)O     96%
